Target or system: Mutant CD33-GFP JS28 (S28L) on 293FT cells (UniProt P20138)
Sequence (P20138 18-364 S28L): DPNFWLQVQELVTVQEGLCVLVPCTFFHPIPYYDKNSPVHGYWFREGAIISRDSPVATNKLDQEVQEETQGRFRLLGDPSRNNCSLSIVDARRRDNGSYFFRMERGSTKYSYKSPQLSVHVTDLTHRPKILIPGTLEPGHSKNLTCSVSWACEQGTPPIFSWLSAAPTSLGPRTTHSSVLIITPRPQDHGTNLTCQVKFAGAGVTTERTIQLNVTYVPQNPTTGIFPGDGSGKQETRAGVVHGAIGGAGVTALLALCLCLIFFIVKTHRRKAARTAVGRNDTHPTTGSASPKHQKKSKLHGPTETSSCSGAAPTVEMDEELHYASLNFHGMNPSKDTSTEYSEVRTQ
Experiment notes: FACS, mutant CD33-GFP on 293FT cells
Property label: FACS binding data
Response field accepts a number only; no unit should be typed.

Some binders with recorded FACS binding data:
binder="sdCD33_8 (VHH, sdAb from a naive llama phage library; also called 424; sdAb424) VHH: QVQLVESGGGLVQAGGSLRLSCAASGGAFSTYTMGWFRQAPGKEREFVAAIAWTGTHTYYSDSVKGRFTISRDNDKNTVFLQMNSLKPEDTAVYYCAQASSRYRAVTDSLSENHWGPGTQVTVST" result_number=99.6
binder="sdCD33_10 (VHH) VHH: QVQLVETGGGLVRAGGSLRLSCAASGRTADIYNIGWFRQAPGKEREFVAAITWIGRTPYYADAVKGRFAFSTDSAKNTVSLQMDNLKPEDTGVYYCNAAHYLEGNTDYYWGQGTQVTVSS" result_number=99.6

# lookup: FACS binding data of sdCD33_9 (VHH, sdAb from a naive llama phage library; also called 426; sdAb426) VHH: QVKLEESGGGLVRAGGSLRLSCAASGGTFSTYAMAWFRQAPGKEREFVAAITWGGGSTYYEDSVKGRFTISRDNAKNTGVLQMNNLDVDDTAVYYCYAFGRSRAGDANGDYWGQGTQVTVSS
99.7
